# assayRemarks: reducers of endogenous Her2 protein level, primary screen, SKBR3 breast tumor cells, AlphaScreen, ATP viability (AID 461)
# runConditions: 18-24 h, measured here: SKBR3 viability, ATP luminescence, at 10 µM
TRUE if viability is below 90%. FALSE if not; exact matches included in FALSE.

Query: Strictly below 90%: is that where viability of Cn1c(C(=O)N2CCCC(C(=O)NCCCc3ccccc3)C2)cc2sccc21 (stereo not given) sits?
Response: FALSE

Query: Try CC(=O)C1=C(O)C(=O)N(c2ccc(C(=O)O)cc2)C1c1ccccc1 (stereo not given) next.
Response: FALSE

Query: Try this compound next: CCOc1cccc(/C(O)=C2/C(=O)C(=O)N(CCN3CCOCC3)C2c2cccnc2)c1 (stereo not given)
Response: FALSE

Query: Proceed to CCCSc1nc2c(cnn2-c2ccc(Cl)cc2)c(=O)[nH]1
Response: FALSE

Query: Subsequent entry: COc1cccc(OC)c1C(=O)N1CCN(S(=O)(=O)c2ccccc2)CC1
Response: TRUE

Query: Cc1cc(C)n(-c2nc3ccccc3c(=O)n2OCCOc2ccccc2)n1 ?
Response: TRUE

Query: Another: CCOC(=O)C1C2C=CC3(CN(c4cccc(Cl)c4)C(=O)C13)O2 (stereo not given)
Response: TRUE

Query: Check Cc1nc(NCc2ccco2)c2oc3ccccc3c2n1 too.
Response: FALSE

Query: And for COc1ccc(-n2c(=O)[nH]cc(C(=O)Nc3ccc(NC(C)=O)cc3)c2=O)cc1 ?
Response: FALSE

Query: Try this compound next: Cn1c(=O)c2c(nc(SCCCO)n2Cc2ccccc2Cl)n(C)c1=O
Response: TRUE

Query: # repeat for Cc1ccc2ncnc(NCCCN3CCOCC3)c2c1
Response: FALSE

Query: One more compound: Cc1cccc2cc(CN(CCN3CCCC3)C(=O)NC3CCCCC3)c(=O)[nH]c12
Response: TRUE

Query: Please give the result for CCOC(=O)c1[nH]nc(N)c1NC(=O)c1ccc(Cl)cc1Cl too.
Response: TRUE

Query: Also CCCC(=O)Nc1ccc(NC(=O)C2CC2)cn1 ?
Response: FALSE

Query: Now this one: Cc1ccc(-n2ncc3c(=O)n(CC(=O)NC4CCCCC4)cnc32)cc1C
Response: FALSE

Query: Note, next up: Fc1ccc(-n2c(Cc3ccccc3)nnc2SCc2nc(-c3cccs3)no2)cc1
Response: FALSE

Query: Further, for CC1CCN(CC(O)COC2CCC(C(C)(C)C)CC2)CC1 (stereo not given) ?
Response: TRUE

Query: Further, for Nc1nc(F)nc2c1ncn2[C@@H]1O[C@H](CO)[C@@H](O)[C@@H]1O ?
Response: FALSE

Query: Same lookup for CCOC(=O)c1sc(NC(=O)CNC(=O)Cn2cnc3sc(C)c(C)c3c2=O)nc1C , please.
Response: FALSE

Query: Another: c1ccc(-c2noc(C34CC5CC(CC(C5)C3)C4)n2)nc1
Response: FALSE

Query: Entry Cc1sc2c(c1C)CN(C1CC(C)(C)NC(C)(C)C1)CN2C(=O)c1ccco1 please
Response: TRUE

Query: Now consider CCn1c(SCC(=O)c2ccc(F)cc2)nnc1-c1ccoc1C .
Response: FALSE

Query: For CC(COc1ccccc1)NC(C)C(O)c1ccc(O)cc1 (stereo not given) then?
Response: FALSE

Query: Could you do the same for COC(=O)c1cc2ccsc2n1Cc1nc(-c2ccc(OC)cc2)oc1C , please?
Response: TRUE

Query: // same read-out, input: OCCN(CCO)c1nc(N2CCCCC2)c2nc(N(CCO)CCO)nc(N3CCCCC3)c2n1
Response: FALSE

Query: Another compound to check: N#Cc1c(N)nc2c(c1-c1ccncc1)CCCCC2
Response: FALSE

Query: Now this one: COC(=O)[C@@H](NC(=O)NCc1ccccc1Cl)C(C)C
Response: FALSE

Query: And for CCCn1c(C)nc2c(c1=O)c1nc3ccccc3nc1n2CCc1ccccc1 ?
Response: FALSE

Query: What do we get for CCCNS(=O)(=O)c1ccc(C(=O)NCC2CCCO2)cc1 (stereo not given) ?
Response: FALSE

Query: Then CC1CCN(C(=O)CN2C(=O)C(C)(C)Oc3ccc(C(=O)NC4CCCC4)cc32)CC1 ?
Response: TRUE

Query: Also, Cc1c(NC(=O)C(C)OC(=O)COc2cccc3c2OC(C)(C)C3)c(=O)n(-c2ccccc2)n1C (stereo not given) please.
Response: FALSE

Query: Would you mind doing CCCCC1C(=O)N(c2ccccc2)N(c2ccccc2)C1=O as well?
Response: FALSE

Query: Can you handle O=C(Nc1cccnc1)c1ccc2c(c1)OCO2 next?
Response: FALSE

Query: Would you kindly repeat that for CCN(CC)CCNC(=O)c1cc(S(C)(=O)=O)ccc1OC ?
Response: FALSE

The origin of these recorded values is PubChem BioAssay.
